# target: Src wild-type kinase domain (Src wt KD) (Gallus gallus, UniProt P00523)
# assay protocol: continuous coupled-kinase assay, Src wt KD
# assay context: read-out: EC50 (half maximum effect); dose-response, percent inhibition of kinase activity
pEC50: −log10 of the molar value.
value kind: pEC50

>>> print(df.to_string())
                                   compound  assay_value
0  CC(C)(C)OC(=O)N1CCNC(c2ccc(O)cc2)C1 (stereo not shown)         4.21
